- Measurement description: Cytotoxicity against MDCK cells after 3 days by WST-8 assay
- Assay type: cell-based, Canis lupus familiaris
- Reported conditions: dog
Measured quantity: CC50 at 72 h

In: Look up and state reported CC50 at 72 h for CC(C)N1CN(C(c2ccccc2)c2ccccc2)n2ccc(=O)c(O)c2C1=O
Out: > 25 µM

###

- Test system: Influenza A virus H3N2
- Format: functional, organism-based
- Reported conditions: A/Victoria/3/1975(H3N2), MDCK, 72 h
Measured quantity: pEC50
// returns pEC50 (minus log10 of molar concentration), number only

CC(C)N1C[C@H](C(c2ccccc2)c2ccccc2)n2ccc(=O)c(O)c2C1=O	6.31

In: Print Influenza A virus H3N2 pEC50 for CC(C)N1CN(C(c2ccccc2)c2ccccc2)n2ccc(=O)c(O)c2C1=O .
Out: 6.08

Origin of values: ChEMBL document CHEMBL4334467
